Reference source for all entries: ChEMBL document CHEMBL5143548

molecular target: Mu-type opioid receptor (Homo sapiens); experiment: Displacement of [3H]-DAMGO from recombinant human MOR expressed in CHO cell membranes measured after 2 hrs by microbeta scintillation counting method
Sequence (P35372 whole entry): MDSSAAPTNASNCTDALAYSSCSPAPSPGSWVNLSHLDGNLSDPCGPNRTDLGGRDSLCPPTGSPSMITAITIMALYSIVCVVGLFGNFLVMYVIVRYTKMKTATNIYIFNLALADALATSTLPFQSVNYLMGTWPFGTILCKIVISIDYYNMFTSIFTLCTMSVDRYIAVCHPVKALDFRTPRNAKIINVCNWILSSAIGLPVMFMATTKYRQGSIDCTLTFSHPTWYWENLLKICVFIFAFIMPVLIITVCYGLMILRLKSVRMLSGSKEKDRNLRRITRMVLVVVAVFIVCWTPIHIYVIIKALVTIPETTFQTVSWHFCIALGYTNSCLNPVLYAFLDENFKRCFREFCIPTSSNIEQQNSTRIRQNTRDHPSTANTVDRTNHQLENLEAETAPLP
pKi: −log10 of the molar value.
Label label 1 when pKi >= 9; otherwise label 0.

> print(dat)
                               input.smiles                            assay.target    group
1  O=C(Cc1ccccc1)N[C@H]1C[C@]23CCN(CC4CC4)[C@H](Cc4ccc(O)cc42)[C@]32CC[C@@H]1O2  Mu-type opioid receptor (Homo sapiens)  label 0
2  O=C(CCc1ccccc1)N[C@@H]1C[C@]23CCN(CC4CC4)[C@H](Cc4ccc(O)cc42)[C@]32CC[C@@H]1O2  Mu-type opioid receptor (Homo sapiens)  label 1
3  O=C(Cc1ccccc1)N[C@@H]1C[C@]23CCN(CC4CC4)[C@H](Cc4ccc(O)cc42)[C@]32CC[C@@H]1O2  Mu-type opioid receptor (Homo sapiens)  label 1

Please look at the following compound next.
Data request: Is reported pKi greater than or equal to 9 here: O=C(N[C@@H]1C[C@]23CCN(CC4CC4)[C@H](Cc4ccc(O)cc42)[C@]32CC[C@@H]1O2)c1ccccc1
Data returned: label 1
